Provide the recorded GI50 for the entries that follow.
Test system: CAKI-1 renal
Assay: NCI tumour cell line growth inhibition, 48 h

Below, each entry is followed by its recorded GI50 result.
chem_smiles=O=C(Cc1n[nH]c(=O)c2ccccc12)OCc1c(Cl)cccc1Cl measured_metric=GI50 result="26.2 µM"
chem_smiles=COc1cc2c(/C=C3/C(=O)Nc4c3ccc3ccccc43)c(Cl)n(C)c2cc1C measured_metric=GI50 result="< 0.0224 µM"

Provide each entry's GI50 from the list below.
1. O=C1/C(=C/c2ccccc2)CN(C(=O)CCN2CCC(=NO)CC2)C/C1=C\c1ccccc1
2. O=C(Nc1ccc2[nH]c3ccccc3c2c1)c1ccccc1Cl

Ans:
["1.61 µM", "3.47 µM"]
